- measurement.notes: Selectivity index, ratio of CC50 for HEL cells to EC50 for Human cytomegalovirus AD169 infected in HEL cells
- Type: toxicity, cell-based
- experimental.setup: read-out: Ratio CC50/EC50
The entries below are paired with their reported selectivity ratio.
reported.endpoint: selectivity ratio

• CCOC(=O)[C@H](C)NP(=O)(COCCOc1cc(N)nc(N)n1)N[C@@H](C)C(=O)OCC = ≤ 1
• CC(C)(C)C(=O)OCOP(=O)(COCCn1cnc(N)nc1=O)OCOC(=O)C(C)(C)C = 14 to 47
• CCCCCCCCCCCCCCCCCCOCCOP(=O)(O)COCCn1cnc(N)nc1=O = 71 to 330
• CCCCCCCCCCCCCCCCNC(=O)[C@@H](N)Cc1ccc(OP(=O)(COCCn2cnc(N)nc2=O)Oc2ccc(C[C@H](N)C(=O)NCCCCCCCCCCCCCCCC)cc2)cc1 = 13 to 56

---

- measurement.notes: Cytotoxicity against HEL cells assessed as reduction in cell growth after 3 days by coulter counter method
- Type: cell-based
- experimental.setup: human, HEL cells
reported.endpoint: CC50 at 72 h (µM)

* CC(C)OC(=O)OCOP(=O)(COCCOc1cc(N)nc(N)n1)OCOC(=O)OC(C)C | 15.1

---

- measurement.notes: Selectivity index, ratio of CC50 for HEL cells to EC50 for wild type thymidine kinase-deficient Varicella-Zoster virus 07-1 infected in HEL cells
- Format: toxicity, cell-based
- experimental.setup: human, read-out: Ratio CC50/EC50
The entries below are paired with their reported selectivity ratio.
reported.endpoint: selectivity ratio

- CCCCCCCCCCCCCCCCNC(=O)[C@@H](N)Cc1ccc(OP(=O)(COCCn2cnc(N)nc2=O)Oc2ccc(C[C@H](N)C(=O)NCCCCCCCCCCCCCCCC)cc2)cc1: 47 to 93
- CCOC(=O)[C@H](C)NP(=O)(COCCOc1cc(N)nc(N)n1)N[C@@H](C)C(=O)OCC: 15 to 52
- Nc1cc(OCCOCP(=O)(O)O)nc(N)n1: 19 to 44
- CCCCCCCCCCCCCCCCCCOCCOP(=O)(O)COCCn1cnc(N)nc1=O: 100 to 248
- CC(C)(C)C(=O)OCOP(=O)(COCCn1cnc(N)nc1=O)OCOC(=O)C(C)(C)C: 35 to 71

---

The entries below are paired with their reported selectivity ratio.
- measurement.notes: Selectivity index, ratio of CC50 for HEL cells to EC50 for thymidine kinase-deficient ACV-resistant Herpes simplex virus 1 KOS infected in HEL cells
- Format: toxicity, cell-based
- experimental.setup: human, read-out: Ratio CC50/EC50
reported.endpoint: selectivity ratio

* CC(C)(C)C(=O)OCOP(=O)(COCCn1cnc(N)nc1=O)OCOC(=O)C(C)(C)C | 37 to 63
* CCOC(=O)[C@H](C)NP(=O)(COCCOc1cc(N)nc(N)n1)N[C@@H](C)C(=O)OCC | 4 to 15
* CCCCCCCCCCCCCCCCNC(=O)[C@@H](N)Cc1ccc(OP(=O)(COCCn2cnc(N)nc2=O)Oc2ccc(C[C@H](N)C(=O)NCCCCCCCCCCCCCCCC)cc2)cc1 | 45 to 68
* Nc1cc(OCCOCP(=O)(O)O)nc(N)n1 | 1.72 to 4.5
* CCCCCCCCCCCCCCCCCCOCCOP(=O)(O)COCCn1cnc(N)nc1=O | 226 to 528
